The measured values listed here are drawn from patent US20140235698A1.

target: NCEA (CEA/CEACAM5 N domain to B3 domain) (Homo sapiens, UniProt P06731 P06731:35-675); experiment: SPR; Biacore 2000; loop mutant, weakened or no binding per text; settings: tags: pET28a(+), Ni-NTA (His), E. coli BL21
Sequence (P06731 35-675, one chain of several): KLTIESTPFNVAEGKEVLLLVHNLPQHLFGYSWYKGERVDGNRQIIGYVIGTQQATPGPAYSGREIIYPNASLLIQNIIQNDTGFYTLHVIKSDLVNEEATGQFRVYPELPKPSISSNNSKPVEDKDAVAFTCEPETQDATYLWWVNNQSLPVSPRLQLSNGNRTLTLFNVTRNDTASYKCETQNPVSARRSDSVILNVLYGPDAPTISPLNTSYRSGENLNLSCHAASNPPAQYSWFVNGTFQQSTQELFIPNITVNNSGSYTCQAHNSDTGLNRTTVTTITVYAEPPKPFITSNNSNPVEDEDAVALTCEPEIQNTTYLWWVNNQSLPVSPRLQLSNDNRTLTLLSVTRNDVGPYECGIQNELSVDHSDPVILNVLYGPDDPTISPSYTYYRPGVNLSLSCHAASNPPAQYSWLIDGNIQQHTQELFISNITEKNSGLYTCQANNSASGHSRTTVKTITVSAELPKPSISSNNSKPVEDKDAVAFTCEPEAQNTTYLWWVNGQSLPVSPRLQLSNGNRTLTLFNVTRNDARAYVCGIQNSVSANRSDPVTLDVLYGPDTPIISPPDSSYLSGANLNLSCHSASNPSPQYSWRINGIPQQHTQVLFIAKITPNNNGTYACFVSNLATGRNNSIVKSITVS
Entries and their pKd
// pKd here means minus log10 of the molar concentration (mol/L)

INSERT INTO measurements (binder, value) VALUES
  ('GCGGAAGCGUGCUGGGCUAGGGCGGCGGCGGGAAAACCAGUACUUUCGU (ssRNA, 2''-F pyrimidines (C and U)) [Mutant GROUP 1-1 (m19-1, mutant YJ-1)]', 5.89);

Next, consider the following binder.
Task item: Quickly give me recorded pKd for GUGCUGGGCUAGGGCGGCGGCGGGAAAACCAGUAC (ssRNA, 2'-F pyrimidines (C and U)) [Mutant GROUP 1-2 (m19-2)]
Reply: 6.38
